A compilation of published pIC50 results with Amine oxidase [flavin-containing] B (Rattus norvegicus).
# Target Desc: Amine oxidase [flavin-containing] B (Rattus norvegicus)
# Sequence (P19643 whole entry): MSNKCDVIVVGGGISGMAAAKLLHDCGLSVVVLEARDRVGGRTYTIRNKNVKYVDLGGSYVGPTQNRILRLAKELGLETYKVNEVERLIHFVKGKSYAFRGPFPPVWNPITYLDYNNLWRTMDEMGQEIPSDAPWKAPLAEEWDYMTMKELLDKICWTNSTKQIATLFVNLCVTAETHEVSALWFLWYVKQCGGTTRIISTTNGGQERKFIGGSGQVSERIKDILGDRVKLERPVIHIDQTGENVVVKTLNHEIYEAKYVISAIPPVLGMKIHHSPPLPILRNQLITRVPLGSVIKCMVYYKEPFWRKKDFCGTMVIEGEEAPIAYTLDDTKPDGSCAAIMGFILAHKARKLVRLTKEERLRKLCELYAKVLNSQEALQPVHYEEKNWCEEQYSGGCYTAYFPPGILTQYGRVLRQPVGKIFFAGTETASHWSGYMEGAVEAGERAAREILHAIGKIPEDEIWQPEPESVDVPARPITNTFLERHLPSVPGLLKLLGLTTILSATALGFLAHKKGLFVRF
Field pIC50 (float): negative decimal logarithm of the concentration in molar.

{"Compound": "O=C(CCCc1ccccc1)Nc1nc2ccccc2c(=O)s1", "Property Measured": "pIC50", "Observed Value": 6.73}

Ask | Given the entry NCCCNC(=O)c1ccc(Cl)cc1 , report its measured pIC50.
Reply | 2.79

Ask | Given the entry c1ccc(COc2ccc3c(c2)OCO3)cc1 , report its measured pIC50.
Reply | 5.62

Ask | Given the entry Cc1c(C)c2ccc(OC(C)c3ccccc3)cc2oc1=O (stereo not drawn) , report its measured pIC50.
Reply | 6.49

Ask | Given the entry c1ccc(Cc2nc3ccccc3nc2NCCN2CCOCC2)cc1 , report its measured pIC50.
Reply | 3.08

Ask | Given the entry O=C(O)CCc1cc2c(nn1)-c1ccccc1C2=O , report its measured pIC50.
Reply | 4.00

Ask | Given the entry O=C1c2ccccc2-c2nnc(OCc3ccccc3)cc21 , report its measured pIC50.
Reply | 4.26

Ask | Given the entry O=C1c2ccccc2-c2nc(-c3ccccc3)nnc21 , report its measured pIC50.
Reply | 5.20

Ask | Given the entry CCOC(=O)c1c(-c2ccccc2)nnc2c1C(=O)c1ccccc1-2 , report its measured pIC50.
Reply | 5.28
